Property: melting point; scope: individual compounds

Known melting point results, listed for orientation:
COc1ccc(Nc2cc3c(cc2Nc2ccc(OC)cc2)C(=O)NC3=O)cc1: 191 to 193 °C
CCn1ncc2c1ncc1c(N3CCOCC3)nc3cc(C)nn3c12: 179 to 180 °C
CS(=O)(=O)c1ncc(F)c(NCc2ccccc2F)n1: 105 to 107 °C
CC(C)=CCN1CCn2c(=O)[nH]c3cc(Cl)cc(c32)C1C (stereo not given): 139 °C

Now for another entry.
Any idea what its melting point is? The compound is "COC(=O)c1nc2cc(F)ccc2c(O)c1C(=O)OC"
228 °C
